Attribute: Mean values (%) of primary growth inhibitory screen (viability in %), MCF-7
# Tested on: MCF-7 cells
# Assay protocol: MTT cell viability assay on MCF-7 breast cancer cells
# Assay type: cell-based, human
# Setup conditions: 30 µM, 72 hours
Don't forget the unit after the value.

Known results for compounds:
Smiles code	Test system	Reading
Cc1ccccc1-n1nc2c(c1C)C[C@@]1(C)[C@@H](CC[C@@H]3[C@@H]1CC[C@]1(C)[C@@H](O)CC[C@@H]31)C2	MCF-7 cells	32.4%
Cc1ccc(-n2nc3c(c2C)C[C@@]2(C)[C@@H](CC[C@@H]4[C@@H]2CC[C@]2(C)C(=O)CC[C@@H]42)C3)c(C)c1	MCF-7 cells	13.3%
COc1ccc(-n2nc3c(c2C)C[C@@]2(C)[C@@H](CC[C@@H]4[C@@H]2CC[C@]2(C)C(=O)CC[C@@H]42)C3)cc1	MCF-7 cells	36.3%
COc1ccc(-n2nc3c(c2C)C[C@@]2(C)[C@@H](CC[C@@H]4[C@@H]2CC[C@]2(C)[C@@H](O)CC[C@@H]42)C3)cc1	MCF-7 cells	14.0%
Cc1c2c(nn1-c1ccccc1)C[C@@H]1CC[C@@H]3[C@H](CC[C@]4(C)C(=O)CC[C@@H]34)[C@@]1(C)C2	MCF-7 cells	7.5%

// returns reported Mean values (%) of primary growth inhibitory screen (viability in %), MCF-7 for input Cc1ccccc1-n1nc2c(c1C)C[C@@]1(C)[C@@H](CC[C@@H]3[C@@H]1CC[C@]1(C)C(=O)CC[C@@H]31)C2
63.6%

Item under review: Cc1ccc(-n2nc3c(c2C)C[C@@]2(C)[C@@H](CC[C@@H]4[C@@H]2CC[C@]2(C)[C@@H](O)CC[C@@H]42)C3)c(C)c1 . Reported Mean values (%) of primary growth inhibitory screen (viability in %), MCF-7?
10.5%

====

# System: PC-3 cells
# Assay protocol: MTT cell viability assay on PC-3 prostate cancer cells
# Format: cell-based, human
# Setup conditions: Homo sapiens, PC-3; MTT, 72 hours, ± SD
Measure name: pIC50
Scale for pIC50: -log10 of concentration given in mol/L; no unit attached.

Look at this molecule and give its reported pIC50. Cc1c2c(nn1-c1ccccc1)CC1CCC3C4CCC(O)C4(C)CCC3C1(C)C2 (stereo not shown) [4a]
5.25

====

# Test system: MCF-7 cells
# Assay protocol: MTT cell viability assay on MCF-7 breast cancer cells
# Type: cell-based, human
# Setup conditions: 30 µM, 72 hours
# Procedure: HeLa, MCF-7 and MDA-MB-231 cells were obtained from Sigma-Aldrich and maintained as reported previously. MRC-5, PC-3, DU 145 cells were purchased from American Type Culture Collection (ATCC, Manassas, VA, USA). […] Each test compound was dissolved in cell culture grade DMSO (Molar Chemicals, Halásztelek, Hungary) in a final concentration of 10 mM. […] Formazan crystals were solubilized in DMSO and extinction was measured at 570 nm using a Synergy HTX plate reader (BioTech-Hungary, Budapest, Hungary). […]
Measure name: Mean values (%) of primary growth inhibitory screen (viability in %), MCF-7
Give the number; % is assumed, so skip it.

Which measured Mean values (%) of primary growth inhibitory screen (viability in %), MCF-7 value corresponds to Cc1c2c(nn1-c1ccc(Br)cc1)C[C@@H]1CC[C@@H]3[C@H](CC[C@]4(C)[C@@H](O)CC[C@@H]34)[C@@]1(C)C2 [4h] ?
5.2

====

# Test system: MDA-MB-231 cells
# Assay protocol: MTT cell viability assay on MDA-MB-231 breast cancer cells
# Type: cell-based, human
# Setup conditions: 72 hours, ± SD
Measured IC50 of individual entries
Give just the number in µM; leave the unit off.

Molecule	IC50 [µM]
COc1ccc(-n2nc3c(c2C)C[C@@]2(C)[C@@H](CC[C@@H]4[C@@H]2CC[C@]2(C)[C@@H](O)CC[C@@H]42)C3)cc1 [4e]	6.6

Attention now turns to another entry.
State the recorded IC50 for this entry: Cc1c2c(nn1-c1ccc(Cl)cc1)C[C@@H]1CC[C@@H]3[C@H](CC[C@]4(C)[C@@H](O)CC[C@@H]34)[C@@]1(C)C2 [4g]
12.6

====

# System: MCF-7 cells
# Assay protocol: MTT cell viability assay on MCF-7 breast cancer cells
# Type: cell-based, human
# Setup conditions: 10 µM, 72 hours
Measure name: Mean values (%) of primary growth inhibitory screen (viability in %), MCF-7
Reply numerically in %, unit not repeated.

Worked cases, Mean values (%) of primary growth inhibitory screen (viability in %), MCF-7 given:
Compound	Test system	Reading
Cc1ccc(-n2nc3c(c2C)C[C@@]2(C)[C@@H](CC[C@@H]4[C@@H]2CC[C@]2(C)C(=O)CC[C@@H]42)C3)c(C)c1 [5d]	MCF-7 cells	56.3
Cc1c2c(nn1-c1ccc(F)cc1)C[C@@H]1CC[C@@H]3[C@H](CC[C@]4(C)C(=O)CC[C@@H]34)[C@@]1(C)C2 [5f]	MCF-7 cells	72.6
Cc1c2c(nn1-c1ccc(Br)cc1)C[C@@H]1CC[C@@H]3[C@H](CC[C@]4(C)[C@@H](O)CC[C@@H]34)[C@@]1(C)C2 [4h]	MCF-7 cells	54.1
Cc1ccc(-n2nc3c(c2C)C[C@@]2(C)[C@@H](CC[C@@H]4[C@@H]2CC[C@]2(C)[C@@H](O)CC[C@@H]42)C3)c(C)c1 [4d]	MCF-7 cells	74.5
Cc1c2c(nn1-c1ccc([N+](=O)[O-])cc1)CC1CCC3C4CCC(O)C4(C)CCC3C1(C)C2 (centres unmarked) [4j]	MCF-7 cells	55.8
Cc1c2c(nn1-c1ccc(Cl)cc1)C[C@@H]1CC[C@@H]3[C@H](CC[C@]4(C)C(=O)CC[C@@H]34)[C@@]1(C)C2 [5g]	MCF-7 cells	56.3

I am curious: what Mean values (%) of primary growth inhibitory screen (viability in %), MCF-7 value has been reported for COc1ccc(-n2nc3c(c2C)C[C@@]2(C)[C@@H](CC[C@@H]4[C@@H]2CC[C@]2(C)C(=O)CC[C@@H]42)C3)cc1 [5e] ?
53.5

// query Mean values (%) of primary growth inhibitory screen (viability in %), MCF-7 value for entry Cc1ccc(-n2nc3c(c2C)CC2(C)C(CCC4C5CCC(O)C5(C)CCC42)C3)cc1 (centres unmarked) [4c]
49.5

====

Listed here: items and their measured IC50.
# System: HeLa cells
# Assay protocol: MTT cell viability assay on HeLa cervical cancer cells
# Format: cell-based, human
# Setup conditions: 72 hours, ± SD
# Method: HeLa, MCF-7 and MDA-MB-231 cells were obtained from Sigma-Aldrich and maintained as reported previously. MRC-5, PC-3, DU 145 cells were purchased from American Type Culture Collection (ATCC, Manassas, VA, USA). […] Each test compound was dissolved in cell culture grade DMSO (Molar Chemicals, Halásztelek, Hungary) in a final concentration of 10 mM. […] Formazan crystals were solubilized in DMSO and extinction was measured at 570 nm using a Synergy HTX plate reader (BioTech-Hungary, Budapest, Hungary). […]
Write it as a number; the unit µM goes unstated.

# example entries with known answers
Smiles code	Quantity unit	IC50
COc1ccc(-n2nc3c(c2C)C[C@@]2(C)[C@@H](CC[C@@H]4[C@@H]2CC[C@]2(C)[C@@H](O)CC[C@@H]42)C3)cc1	µM	8.5
Cc1c2c(nn1-c1ccc(Cl)cc1)C[C@@H]1CC[C@@H]3[C@H](CC[C@]4(C)[C@@H](O)CC[C@@H]34)[C@@]1(C)C2	µM	7.2

// next item, IC50 requested
Given the compound Cc1c2c(nn1-c1ccc([N+](=O)[O-])cc1)C[C@@H]1CC[C@@H]3[C@H](CC[C@]4(C)C(=O)CC[C@@H]34)[C@@]1(C)C2 , what is its reported IC50?
10.4

====

# System: MCF-7 cells
# Assay protocol: MTT cell viability assay on MCF-7 breast cancer cells
# Format: cell-based, human
# Setup conditions: 30 µM, 72 hours
# Description: HeLa, MCF-7 and MDA-MB-231 cells were obtained from Sigma-Aldrich and maintained as reported previously. MRC-5, PC-3, DU 145 cells were purchased from American Type Culture Collection (ATCC, Manassas, VA, USA). […] Each test compound was dissolved in cell culture grade DMSO (Molar Chemicals, Halásztelek, Hungary) in a final concentration of 10 mM. […] Formazan crystals were solubilized in DMSO and extinction was measured at 570 nm using a Synergy HTX plate reader (BioTech-Hungary, Budapest, Hungary). […]
Measure name: Mean values (%) of primary growth inhibitory screen (viability in %), MCF-7
Could you give me the number in %? Just the number is fine.

Below: 3 molecules and their reported Mean values (%) of primary growth inhibitory screen (viability in %), MCF-7.
Molecule	Reading
Cc1ccc(-n2nc3c(c2C)CC2(C)C(CCC4C5CCC(=O)C5(C)CCC42)C3)cc1 (centres unmarked) [5c]	48.7
Cc1c2c(nn1-c1ccc(F)cc1)CC1CCC3C4CCC(O)C4(C)CCC3C1(C)C2 (centres unmarked) [4f]	5.4
Cc1c2c(nn1-c1ccc(C#N)cc1)C[C@@H]1CC[C@@H]3[C@H](CC[C@]4(C)C(=O)CC[C@@H]34)[C@@]1(C)C2 [5i]	39.4

Return reported Mean values (%) of primary growth inhibitory screen (viability in %), MCF-7; argument: Cc1ccc(-n2nc3c(c2C)CC2(C)C(CCC4C5CCC(O)C5(C)CCC42)C3)cc1 (centres unmarked) [4c]
5.4

Returns the measured Mean values (%) of primary growth inhibitory screen (viability in %), MCF-7 for the input molecule. Input: Cc1c2c(nn1-c1ccc([N+](=O)[O-])cc1)C[C@@H]1CC[C@@H]3[C@H](CC[C@]4(C)C(=O)CC[C@@H]34)[C@@]1(C)C2 [5j]
14.4

Which value of Mean values (%) of primary growth inhibitory screen (viability in %), MCF-7 has been reported for Cc1c2c(nn1-c1ccc(Cl)cc1)C[C@@H]1CC[C@@H]3[C@H](CC[C@]4(C)C(=O)CC[C@@H]34)[C@@]1(C)C2 [5g] in the records?
28.0

So what's the measured Mean values (%) of primary growth inhibitory screen (viability in %), MCF-7 for this one? Cc1c2c(nn1-c1ccc(Cl)cc1)C[C@@H]1CC[C@@H]3[C@H](CC[C@]4(C)[C@@H](O)CC[C@@H]34)[C@@]1(C)C2 [4g]
5.3

Reported Mean values (%) of primary growth inhibitory screen (viability in %), MCF-7 for Cc1c2c(nn1-c1ccc(C#N)cc1)C[C@@H]1CC[C@@H]3[C@H](CC[C@]4(C)[C@@H](O)CC[C@@H]34)[C@@]1(C)C2 [4i] : what is it?
50.4

Consider the molecule Cc1c2c(nn1-c1ccc(F)cc1)C[C@@H]1CC[C@@H]3[C@H](CC[C@]4(C)C(=O)CC[C@@H]34)[C@@]1(C)C2 [5f] and give its measured Mean values (%) of primary growth inhibitory screen (viability in %), MCF-7.
30.6

Requested read-out: Mean values (%) of primary growth inhibitory screen (viability in %), MCF-7. Entry: Cc1c2c(nn1-c1ccccc1)CC1CCC3C4CCC(O)C4(C)CCC3C1(C)C2 (centres unmarked) [4a]
5.5

What value of Mean values (%) of primary growth inhibitory screen (viability in %), MCF-7 has been recorded for this entry: Cc1c2c(nn1-c1ccc([N+](=O)[O-])cc1)CC1CCC3C4CCC(O)C4(C)CCC3C1(C)C2 (centres unmarked) [4j]
49.6
